testDetails: Stability of compound assessed as degradation temperature at 25 to 500 degreeC under N2 gas by thermogravimetric analysis
Assay type: physicochemical
readoutName: T

QUERY: I would be grateful if you could share the reported T for `COc1cc(NC(C)CCCN)c2ncccc2c1.C[C@H](CCC(=O)NCC(=O)O)[C@H]1CC[C@H]2[C@@H]3[C@H](O)C[C@@H]4C[C@H](O)CC[C@]4(C)[C@H]3C[C@H](O)[C@]12C` .
RESULT: 255 °C

QUERY: Value lookup for T; key = `C[C@H](CCC(=O)O)[C@H]1CC[C@H]2[C@@H]3CC[C@@H]4C[C@H](O)CC[C@]4(C)[C@H]3CC[C@]12C`
RESULT: 355 °C

QUERY: Give its T value. Item: `COc1cc(NC(C)CCCN)c2ncccc2c1.C[C@H](CCC(=O)O)[C@H]1CC[C@H]2[C@@H]3CC[C@@H]4C[C@H](O)CC[C@]4(C)[C@H]3CC[C@]12C`
RESULT: 253 °C

QUERY: Any idea what T was measured for `COc1cc(NC(C)CCCN)c2ncccc2c1.C[C@H](CCC(=O)O)[C@H]1CC[C@H]2[C@@H]3[C@H](O)C[C@@H]4C[C@H](O)CC[C@]4(C)[C@H]3C[C@H](O)[C@]12C` ?
RESULT: 359 °C

QUERY: Record request: T value, item `CCN(CC)CCCC(C)Nc1ccnc2cc(Cl)ccc12.C[C@H](CCC(=O)O)[C@H]1CC[C@H]2[C@@H]3[C@H](O)C[C@@H]4C[C@H](O)CC[C@]4(C)[C@H]3CC[C@]12C`
RESULT: 255 °C

* * *

testDetails: Stability of compound assessed as degradation temperature at 25 to 500 degreeC under N2 gas by thermogravimetric analysis
Format: physicochemical
readoutName: T (°C)
Report the value in °C with no unit label.

QUERY: Could you share which T value was measured for `CCN(CC)CCCC(C)Nc1ccnc2cc(Cl)ccc12.C[C@H](CCC(=O)NCC(=O)O)[C@H]1CC[C@H]2[C@@H]3[C@H](O)C[C@@H]4C[C@H](O)CC[C@]4(C)[C@H]3C[C@H](O)[C@]12C` ?
RESULT: 361

QUERY: Could you share which T value was measured for `C[C@H](CCC(=O)O)[C@H]1CC[C@H]2[C@@H]3[C@H](O)C[C@@H]4C[C@H](O)CC[C@]4(C)[C@H]3C[C@H](O)[C@]12C` ?
RESULT: 360

QUERY: Request the reported T associated with `C[C@H](CCC(=O)NCCCCNc1ccnc2cc(Cl)ccc12)[C@H]1CC[C@H]2[C@@H]3[C@H](O)C[C@@H]4C[C@H](O)CC[C@]4(C)[C@H]3C[C@H](O)[C@]12C`
RESULT: 250

QUERY: Quick one: T of `CCN(CC)CCCC(C)Nc1ccnc2cc(Cl)ccc12.C[C@H](CCC(=O)O)[C@H]1CC[C@H]2[C@@H]3[C@H](O)C[C@@H]4C[C@H](O)CC[C@]4(C)[C@H]3C[C@H](O)[C@]12C` ?
RESULT: 253

QUERY: Which measured T value corresponds to `CCN(CC)CCCC(C)Nc1ccnc2cc(Cl)ccc12.C[C@H](CCC(=O)O)[C@H]1CC[C@H]2[C@@H]3CC[C@@H]4C[C@H](O)CC[C@]4(C)[C@H]3C[C@H](O)[C@]12C` ?
RESULT: 242

QUERY: Which value of T has been reported for `C[C@H](CCC(=O)O)[C@H]1CC[C@H]2[C@@H]3CC[C@@H]4C[C@H](O)CC[C@]4(C)[C@H]3C[C@H](O)[C@]12C` in the records?
RESULT: 357

QUERY: May I ask what T has been recorded for `CCN(CC)CCCC(C)Nc1ccnc2cc(Cl)ccc12.C[C@H](CCC(=O)O)[C@H]1CC[C@H]2[C@@H]3CC[C@@H]4C[C@H](O)CC[C@]4(C)[C@H]3CC[C@]12C` ?
RESULT: 367

* * *

Assign T to each entry below.
testDetails: Stability of compound assessed as degradation temperature at 25 to 500 degreeC under N2 gas by thermogravimetric analysis
Type: physicochemical
Field format: number, assumed °C, no unit text.

QUERY: Recorded T for `C[C@H](CCC(=O)NCC(=O)O)[C@H]1CC[C@H]2[C@@H]3[C@H](O)C[C@@H]4C[C@H](O)CC[C@]4(C)[C@H]3C[C@H](O)[C@]12C` , please?
RESULT: 328

QUERY: Reported T, compound `COc1cc(NC(C)CCCN)c2ncccc2c1.C[C@H](CCC(=O)O)[C@H]1CC[C@H]2[C@@H]3[C@H](O)C[C@@H]4C[C@H](O)CC[C@]4(C)[C@H]3CC[C@]12C` : ____
RESULT: 366

QUERY: For `COc1cc(NC(C)CCCN)c2ncccc2c1.C[C@H](CCC(=O)O)[C@H]1CC[C@H]2[C@@H]3CC[C@@H]4C[C@H](O)CC[C@]4(C)[C@H]3C[C@H](O)[C@]12C` , what is its reported T?
RESULT: 348
